# Tested on: DLD-1 BRCA2−/− cells
# PROTOCOL_DESCRIPTION: Homologous recombination synthetic lethal inhibition of proliferation, DLD-1 BRCA2-/- (Cell Titre Glo 3D)
# Format: cell-based
# CONDITION_SET: Homo sapiens, DLD-1, first proliferation column (c5); DLD-1 BRCA2-/-; read-out: POLQ PD Prolif Lumin (converted)
Documented IC50 across a set of molecules
The reply should be a number in nM, with the unit left off.

Given Cc1ccnc(Cn2c(-c3ccc(O[C@@H]4CCNC4=O)cc3Cl)nc3c(OC4(C)CC4)ncnc32)c1 , state its recorded IC50.
251

Given CNC(=O)COc1ccc(-c2nc3c(OC4(C)CC4)ncnc3n2Cc2cc(C)ccn2)c(Cl)c1 , state its recorded IC50.
251

Given Cc1ccnc(Cn2c(-c3ccc(O[C@H]4CCOC4)cc3Cl)nc3c(OC4(C)CC4)ncnc32)c1 , state its recorded IC50.
100

Given Cc1ccnc(Cn2c(-c3ccc(OCC4(O)COC4)cc3Cl)nc3c(OC4(C)CC4)ncnc32)c1 , state its recorded IC50.
316

Given CC1(Oc2ncnc3c2nc(-c2ccc(OCCN4C[C@H]5C[C@@H]4CN5)cc2Cl)n3Cc2cc(Cl)ccn2)CC1 , state its recorded IC50.
501

Given Cc1ccnc(Cn2c(-c3ccc(OC4CCc5nccn5C4)cc3Cl)nc3c(OC4(C)CC4)ncnc32)c1 (single isomer, unassigned) , state its recorded IC50.
501

Given Cc1ccnc(Cn2c(-c3ccc(CCN4CCNCC4)cc3Cl)nc3c(OC4(C)CC4)ncnc32)c1 , state its recorded IC50.
398
